Readings of Activity for the listed compounds
molecular target: Motilin receptor (Oryctolagus cuniculus); assay: Agonist activity at motilin receptor in rabbit smooth muscle assessed as tachyphylaxis at EC90 concentration after 4th dose; type: functional
assay-readout: Activity (%)

INSERT INTO measurements (compound, assay_readout, readout_unit, readout_value) VALUES
  ('CC[C@H]1OC(=O)[C@H](C)[C@@H](O[C@H]2C[C@@](C)(OC)[C@@H](O)[C@H](C)O2)[C@H](C)[C@@H](O[C@@H]2O[C@H](C)C[C@H](N(C)C(C)C)[C@H]2O)[C@](C)(O)C[C@@H](C)[C@H](OCC(=O)NC2CCC2)[C@H](C)[C@@H](O)[C@]1(C)O', 'Activity', '%', 75),
  ('CCNC(=O)CO[C@@H]1[C@H](C)[C@@H](O)[C@](C)(O)[C@@H](CC)OC(=O)[C@H](C)[C@@H](O[C@H]2C[C@@](C)(OC)[C@@H](O)[C@H](C)O2)[C@H](C)[C@@H](O[C@@H]2O[C@H](C)C[C@H](N(C)C(C)C)[C@H]2O)[C@](C)(O)C[C@H]1C', 'Activity', '%', 89),
  ('CC[C@H]1OC(=O)[C@H](C)[C@@H](O[C@H]2C[C@@](C)(OC)CC(C)O2)[C@H](C)[C@@H](O[C@@H]2O[C@H](C)C[C@H](N(C)CC)[C@H]2O)C2(C)CC(C)=C(O2)[C@H](C)[C@@H](O)[C@H]1C (single isomer, unassigned)', 'Activity', '%', 22),
  ('CC[C@H]1OC(=O)[C@H](C)[C@@H](O[C@H]2C[C@@](C)(OC)[C@@H](O)[C@H](C)O2)[C@H](C)[C@@H](O[C@@H]2O[C@H](C)C[C@H](N(C)C(C)C)[C@H]2O)[C@](C)(O)C[C@@H](C)[C@H](OCC(=O)N(C)C)[C@H](C)[C@@H](O)[C@]1(C)O', 'Activity', '%', 95);
